- System: Plasmodium berghei
- experimental_protocol: Antimalarial activity against Plasmodium berghei ANKA infected NMRI mice (Mus musculus) assessed as reduction of parasitemia treated perorally for 3 days measured on day 4
- Assay type: functional
- details: po
Doc: threshold 2 mg/kg (exclusive). Items with ED50 beneath it return Condition met; others return Condition not met.

Examples with answers:
| molecule | assigned_class |
| --- | --- |
| C[C@H]1[C@H](c2ccc(CN3CCOCC3)n2C)O[C@@H]2O[C@@]3(C)CC[C@H]4[C@H](C)CC[C@@H]1[C@@]24OO3 | Condition met |
| C[C@H]1[C@H](c2cccn2C)O[C@@H]2O[C@@]3(C)CC[C@H]4[C@H](C)CC[C@@H]1[C@@]24OO3 | Condition not met |
| C[C@H]1[C@H](c2ccc(CN3CCOCC3)[nH]2)O[C@@H]2O[C@@]3(C)CC[C@H]4[C@H](C)CC[C@@H]1[C@@]24OO3 | Condition not met |

Note: attention shifts to another entry.
Just wondering, is ED50 of C[C@H]1[C@H](OC(=O)CCC(=O)O)O[C@@H]2O[C@@]3(C)CC[C@H]4[C@H](C)CC[C@@H]1[C@@]24OO3 [ARTESUNATE] below 2 mg/kg?
Condition not met

###

- Test system: Plasmodium falciparum
- experimental_protocol: Antimalarial activity against chloroquine-resistant Plasmodium falciparum K1 (Thailand) assessed as growth inhibition by [3H]hypoxanthine incorporation assay relative to artemisinin
- Format: functional
Each entry gets 0.0 if its Ratio IC50 stays under 2, and 1.0 if its Ratio IC50 is 2 or above.

| chemical_string | assigned_class |
| --- | --- |
| C[C@H]1[C@H](c2ccc(CN3CCOCC3)[nH]2)O[C@@H]2O[C@@]3(C)CC[C@H]4[C@H](C)CC[C@@H]1[C@@]24OO3 | 1.0 |
| C[C@H]1[C@H](c2ccc(CN3CCN(C)CC3)[nH]2)O[C@@H]2O[C@@]3(C)CC[C@H]4[C@H](C)CC[C@@H]1[C@@]24OO3 | 0.0 |

Please tell me: is the compound CO[C@H]1O[C@@H]2O[C@@]3(C)CC[C@H]4[C@H](C)CC[C@@H]([C@H]1C)[C@@]24OO3 at or over 2 in terms of Ratio IC50?
1.0

Please tell me: is the compound C[C@H]1[C@H](c2ccc(CN3CCN(C)CC3)n2C)O[C@@H]2O[C@@]3(C)CC[C@H]4[C@H](C)CC[C@@H]1[C@@]24OO3 at or over 2 in terms of Ratio IC50?
1.0

Please tell me: is the compound C[C@H]1[C@H](c2ccc(CN3CCS(=O)(=O)CC3)n2C)O[C@@H]2O[C@@]3(C)CC[C@H]4[C@H](C)CC[C@@H]1[C@@]24OO3 at or over 2 in terms of Ratio IC50?
1.0

Please tell me: is the compound CC(C)N1CCN(Cc2ccc([C@@H]3O[C@@H]4O[C@@]5(C)CC[C@H]6[C@H](C)CC[C@@H]([C@H]3C)[C@@]46OO5)n2C)CC1 at or over 2 in terms of Ratio IC50?
0.0

###

- Test system: Plasmodium falciparum
- experimental_protocol: Antimalarial activity against chloroquine-sensitive Plasmodium falciparum 3D7 assessed as growth inhibition by [3H]hypoxanthine incorporation assay relative to artemisinin
- Assay type: functional
Doc: threshold 0.6 (exclusive). Items with Ratio IC50 beneath it return MET; others return NOT MET.

Examples with answers:
| chemical_string | assigned_class |
| --- | --- |
| C[C@H]1[C@H](c2ccc(CN3CCC(N4CCCC4)CC3)n2C)O[C@@H]2O[C@@]3(C)CC[C@H]4[C@H](C)CC[C@@H]1[C@@]24OO3 | NOT MET |
| C[C@H]1[C@H](c2ccc(CN3CCS(=O)(=O)CC3)n2C)O[C@@H]2O[C@@]3(C)CC[C@H]4[C@H](C)CC[C@@H]1[C@@]24OO3 | NOT MET |
| C[C@H]1[C@H](c2ccc(CN(C)C)[nH]2)O[C@@H]2O[C@@]3(C)CC[C@H]4[C@H](C)CC[C@@H]1[C@@]24OO3 | NOT MET |

Just wondering, is Ratio IC50 of C[C@H]1[C@H](c2ccc(CN3CCCC3)n2C)O[C@@H]2O[C@@]3(C)CC[C@H]4[C@H](C)CC[C@@H]1[C@@]24OO3 below 0.6?
NOT MET

Just wondering, is Ratio IC50 of CCN(CC)Cc1ccc([C@@H]2O[C@@H]3O[C@@]4(C)CC[C@H]5[C@H](C)CC[C@@H]([C@H]2C)[C@@]35OO4)[nH]1 below 0.6?
MET

Just wondering, is Ratio IC50 of C[C@H]1[C@H](c2ccc(CN3CCN(C)CC3)[nH]2)O[C@@H]2O[C@@]3(C)CC[C@H]4[C@H](C)CC[C@@H]1[C@@]24OO3 below 0.6?
NOT MET

###

- System: Plasmodium falciparum
- experimental_protocol: Antimalarial activity against chloroquine-sensitive Plasmodium falciparum 3D7 assessed as growth inhibition by [3H]hypoxanthine incorporation assay relative to artemisinin
- Format: functional
Listed next: entries and their corresponding Ratio IC50.
Keep the answer to the number alone.

| chemical_string | Ratio IC50 |
| --- | --- |
| CC(C)N1CCN(Cc2ccc([C@@H]3O[C@@H]4O[C@@]5(C)CC[C@H]6[C@H](C)CC[C@@H]([C@H]3C)[C@@]46OO5)[nH]2)CC1 | 1.51 |
| C[C@H]1[C@H](c2ccc(CN3CCSCC3)n2C)O[C@@H]2O[C@@]3(C)CC[C@H]4[C@H](C)CC[C@@H]1[C@@]24OO3 | 1.78 |

Next:
Noted for C[C@H]1[C@H](c2ccc(CN3CCN(C)CC3)n2C)O[C@@H]2O[C@@]3(C)CC[C@H]4[C@H](C)CC[C@@H]1[C@@]24OO3 : its Ratio IC50 reads 1.97

###

Listed next: entries and their corresponding Ratio IC50.
- Tested on: Plasmodium falciparum
- experimental_protocol: Antimalarial activity against chloroquine-sensitive Plasmodium falciparum 3D7 assessed as growth inhibition by [3H]hypoxanthine incorporation assay relative to artemisinin
- Type: functional

| chemical_string | Ratio IC50 |
| --- | --- |
| C[C@H]1[C@H](c2ccc(CN3CCCC3)[nH]2)O[C@@H]2O[C@@]3(C)CC[C@H]4[C@H](C)CC[C@@H]1[C@@]24OO3 | 0.76 |
| C[C@H]1[C@H](c2ccc(CN3CCOCC3)n2C)O[C@@H]2O[C@@]3(C)CC[C@H]4[C@H](C)CC[C@@H]1[C@@]24OO3 | 3.66 |

Measured on Plasmodium falciparum, C[C@H]1[C@H](c2ccc(CN3CCCCC3)n2C)O[C@@H]2O[C@@]3(C)CC[C@H]4[C@H](C)CC[C@@H]1[C@@]24OO3 has a documented Ratio IC50 of 2.1

###

- experimental_protocol: Therapeutic index, ratio of IC50 for human KB cells to IC50 for Plasmodium falciparum 3D7
- Assay type: cell-based
- details: KB cells (cytotoxicity) versus Plasmodium falciparum 3D7, read-out: TI
reported_endpoint: selectivity ratio
Keep the answer to the number alone.

Noted for C[C@H]1[C@H](c2ccc(CN3CCOCC3)n2C)O[C@@H]2O[C@@]3(C)CC[C@H]4[C@H](C)CC[C@@H]1[C@@]24OO3 : its selectivity ratio reads 24600

Noted for CC(C)N1CCN(Cc2ccc([C@@H]3O[C@@H]4O[C@@]5(C)CC[C@H]6[C@H](C)CC[C@@H]([C@H]3C)[C@@]46OO5)[nH]2)CC1 : its selectivity ratio reads 5330

Noted for C[C@H]1[C@H](c2ccc(CN3CCN(C)CC3)[nH]2)O[C@@H]2O[C@@]3(C)CC[C@H]4[C@H](C)CC[C@@H]1[C@@]24OO3 : its selectivity ratio reads 13100

Noted for C[C@H]1[C@H](c2ccc(CN3CCCCC3)[nH]2)O[C@@H]2O[C@@]3(C)CC[C@H]4[C@H](C)CC[C@@H]1[C@@]24OO3 : its selectivity ratio reads 2410

Noted for C[C@H]1[C@H](c2cccn2C)O[C@@H]2O[C@@]3(C)CC[C@H]4[C@H](C)CC[C@@H]1[C@@]24OO3 : its selectivity ratio reads 11600

Noted for C[C@H]1[C@H](c2ccc(CN3CCS(=O)(=O)CC3)n2C)O[C@@H]2O[C@@]3(C)CC[C@H]4[C@H](C)CC[C@@H]1[C@@]24OO3 : its selectivity ratio reads 31100

Noted for C[C@H]1[C@H](c2ccc(CN3CCCCC3)n2C)O[C@@H]2O[C@@]3(C)CC[C@H]4[C@H](C)CC[C@@H]1[C@@]24OO3 : its selectivity ratio reads 6430

Noted for C[C@H]1[C@H](c2ccc[nH]2)O[C@@H]2O[C@@]3(C)CC[C@H]4[C@H](C)CC[C@@H]1[C@@]24OO3 : its selectivity ratio reads 8450

###

- Tested on: Plasmodium berghei
- experimental_protocol: Antimalarial activity against Plasmodium berghei ANKA infected NMRI mice (Mus musculus) assessed as reduction of parasitemia treated perorally for 3 days measured on day 4
- Format: functional
- details: po
Doc: threshold 5 mg/kg (exclusive). Items with ED90 beneath it return T; others return F.

Examples with answers:
| molecule | assigned_class |
| --- | --- |
| C[C@H]1[C@H](c2ccc(CN3CCOCC3)[nH]2)O[C@@H]2O[C@@]3(C)CC[C@H]4[C@H](C)CC[C@@H]1[C@@]24OO3 | T |
| C[C@H]1[C@H](c2cccn2C)O[C@@H]2O[C@@]3(C)CC[C@H]4[C@H](C)CC[C@@H]1[C@@]24OO3 | F |
| C[C@H]1[C@H](c2ccc(CN3CCOCC3)n2C)O[C@@H]2O[C@@]3(C)CC[C@H]4[C@H](C)CC[C@@H]1[C@@]24OO3 | F |
| C[C@H]1[C@H](c2ccc(CN3CCN(C)CC3)n2C)O[C@@H]2O[C@@]3(C)CC[C@H]4[C@H](C)CC[C@@H]1[C@@]24OO3 | F |
| C[C@H]1[C@H](OC(=O)CCC(=O)O)O[C@@H]2O[C@@]3(C)CC[C@H]4[C@H](C)CC[C@@H]1[C@@]24OO3 [ARTESUNATE] | F |

Note: attention shifts to another entry.
Just wondering, is ED90 of CO[C@H]1O[C@@H]2O[C@@]3(C)CC[C@H]4[C@H](C)CC[C@@H]([C@H]1C)[C@@]24OO3 below 5 mg/kg?
F
